observationType: melting point

- compound: "Brc1csc(N2CCCCC2)n1"
  melting point: "66 °C"
- compound: "COCCC(=O)Nc1cccc(-c2cccc3cc(Cc4cccc(C(F)(F)F)c4)sc23)c1"
  melting point: "102 to 103 °C"
- compound: "COc1ccc2c(c1)c(-c1cc3nccnc3[nH]1)cn2Cc1ccccc1"
  melting point: "240 to 244 °C"
- compound: "CCc1nc(O)cc(O)n1"
  melting point: "312 to 315 °C"
- compound: "CN1C(=O)CCCc2cc(Nc3ncc(Cl)c(Nc4ccc(N5CCCCC5)cc4C(N)=O)n3)ccc21"
  melting point: "295 to 297 °C"

State recorded melting point for all listed compounds.
1. CCCCN1CCN(c2cccc3c2C[C@H](NC(C)=O)CC3)CC1
2. CC(C)(C)OC(=O)N[C@H]1CC[C@H](CCN2CCCN(c3cccc(Cl)c3Cl)CC2)CC1
3. COc1cc(C=CCO)ccc1OCc1ccccc1
4. CC(c1ccc(-c2ccccc2)c(F)c1)c1nc(CC#N)no1 (stereo not given)
5. Cc1cccc(C(O)C2C(c3ccccc3)CC(=O)N2C)c1 (stereo not given)

Result ::
["118 to 120 °C", "95 to 98 °C", "81 to 82 °C", "111 to 112 °C", "163 to 165 °C"]
